# System: MCF7
# assayRemarks: Growth inhibition of human MCF7 cells after 3 days by MTT assay
# Type: functional
# conditionsUsed: MCF7, 72 h
Overview of recorded GI50 for various compounds
Form entry: value (µM) — number only.

Worked cases, answers included:
Cn1cc[n+](C)c1/C=C/c1ccc(-c2ccccc2)s1 = 1.45
Cn1c(/C=C/c2cccc[n+]2C)cc2ccccc21 = 15.1
C[n+]1ccccc1/C=C/c1ccc(-c2ccccc2)s1 = 8.32
Cn1cc[n+](C)c1/C=C/c1ccc(-c2cccs2)s1 = 4.68
Cn1cc[n+](C)c1/C=C/c1ccc(Br)s1 = 14.5
Cn1cccc1/C=C/c1n(C)cc[n+]1C = 100
Cn1cc[n+](C)c1/C=C/c1cc(-c2ccccc2)cs1 = 1

Kindly consider the entry below.
Determine its reported GI50: `C[n+]1ccccc1/C=C/c1cc(-c2ccccc2)cs1` 0.525
